Where these numbers come from: patent US8871753B2

Answer each item with its documented IC50.
# Subject Of Test: TYK2 (Homo sapiens, UniProt P29597)
# Sequence (P29597 whole entry): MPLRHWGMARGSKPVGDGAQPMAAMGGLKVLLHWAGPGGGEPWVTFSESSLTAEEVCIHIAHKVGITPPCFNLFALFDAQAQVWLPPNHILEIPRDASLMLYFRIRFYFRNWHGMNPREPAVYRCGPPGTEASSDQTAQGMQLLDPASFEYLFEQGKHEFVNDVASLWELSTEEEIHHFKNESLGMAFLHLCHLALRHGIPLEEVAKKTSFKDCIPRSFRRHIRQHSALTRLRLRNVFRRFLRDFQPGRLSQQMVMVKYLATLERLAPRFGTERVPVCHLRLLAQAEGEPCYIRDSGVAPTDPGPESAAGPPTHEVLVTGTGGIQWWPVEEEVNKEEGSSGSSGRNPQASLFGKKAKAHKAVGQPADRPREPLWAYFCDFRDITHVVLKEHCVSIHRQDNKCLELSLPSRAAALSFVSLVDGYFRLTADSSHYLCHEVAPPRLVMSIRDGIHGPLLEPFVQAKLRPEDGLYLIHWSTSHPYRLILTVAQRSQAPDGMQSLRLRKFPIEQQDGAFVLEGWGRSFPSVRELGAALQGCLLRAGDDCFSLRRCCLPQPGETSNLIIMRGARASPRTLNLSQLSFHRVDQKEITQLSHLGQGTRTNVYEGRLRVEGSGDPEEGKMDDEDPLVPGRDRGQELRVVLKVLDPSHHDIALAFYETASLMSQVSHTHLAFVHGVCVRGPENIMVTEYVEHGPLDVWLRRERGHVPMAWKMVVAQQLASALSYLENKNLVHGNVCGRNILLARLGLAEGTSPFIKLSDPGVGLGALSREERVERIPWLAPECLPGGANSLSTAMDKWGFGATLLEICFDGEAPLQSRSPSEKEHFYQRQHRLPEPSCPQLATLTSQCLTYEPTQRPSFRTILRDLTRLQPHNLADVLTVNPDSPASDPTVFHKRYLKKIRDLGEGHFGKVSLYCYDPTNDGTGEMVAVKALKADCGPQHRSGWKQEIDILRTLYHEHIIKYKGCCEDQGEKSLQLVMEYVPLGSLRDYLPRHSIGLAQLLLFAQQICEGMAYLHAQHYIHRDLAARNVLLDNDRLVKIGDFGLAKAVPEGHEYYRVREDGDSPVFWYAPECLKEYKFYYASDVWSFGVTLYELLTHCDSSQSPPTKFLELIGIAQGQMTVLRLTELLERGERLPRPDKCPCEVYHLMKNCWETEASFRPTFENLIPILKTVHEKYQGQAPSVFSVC
# Assay Name: TYK2 kinase inhibition (Table A1)
# Assay type: biochemical
Counter-ions that a name gives are not always drawn.
Value expressed in nM; do not type the unit.

get_value(item= CC(C)S(=O)(=O)c1ccc2cc1Nc1nc(ncc1Cl)Nc1cccc(c1)CC2 [Example A8, trifluoroacetate] , readout=IC50) returns 80

get_value(item= N#Cc1ccc(NC(=O)N2CCC(C(=O)Nc3ccc4cc3CCc3cccc(c3)Nc3ncc(Cl)c(n3)N4)CC2)cc1 [Example A37, trifluoroacetate] , readout=IC50) returns 21

get_value(item= CNC(=O)N1CCC(CC(=O)Nc2ccc3cc2CCc2cncc(c2)Nc2ncc(Cl)c(n2)N3)CC1 [Example A100, bis(trifluoroacetate)] , readout=IC50) returns 3
